Assay System: T1, Trx-Strep-tagged mouse FAM92A BAR domain (amino acids 70-283) (mouse)
T1 chain: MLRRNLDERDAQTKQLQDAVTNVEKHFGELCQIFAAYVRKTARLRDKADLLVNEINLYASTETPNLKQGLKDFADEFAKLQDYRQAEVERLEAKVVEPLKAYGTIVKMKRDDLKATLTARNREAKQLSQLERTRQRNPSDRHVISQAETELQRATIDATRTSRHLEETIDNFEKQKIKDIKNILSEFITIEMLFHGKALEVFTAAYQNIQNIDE
Assay Notes: BLI
Measured Attribute: pKd
Give bare numbers, as −log10 of the molar value.

Look up pKd for this binder: Trx-His-tagged mouse CBY1 N-terminal region (amino acids 1-70) (domain or fragment) MPLFGSIFSPKKTPPRKSASLSNLHSLDRSTRELELGLDYGTPTMNLAGQSLKFENGQWVADSVISGGVD
4.97
